system: P. aeruginosa; assay: Checkerboard assay (antibiotic + adjuvant combination MIC); format: cell-based, Pseudomonas aeruginosa; conditions: PA 101243; compound at 8 μM
Observation Type: MIC of ATM in the presence of compound (µg/mL)
One number for each entry, in µg/mL.

Cl.Cl.Cl.Cl.Cl.NC[C@H]1O[C@H](O[C@H]2[C@H](OCCCCCCCCCCCCN3CCN(c4cc5c(cc4F)c(=O)c(C(=O)O)cn5C4CC4)CC3)[C@@H](O)[C@H](N)C[C@@H]2N)[C@H](N)C[C@@H]1O [Compound 24] ... 0.25
N=C(N)NC[C@H]1O[C@H](O[C@H]2[C@H](OCCCCCCCCCCCCN3CCN(c4cc5c(cc4F)c(=O)c(C(=O)O)cn5C4CC4)CC3)[C@@H](O[C@H]3O[C@H](CO)[C@@H](O)[C@H](NC(=N)N)[C@H]3O)[C@H](NC(=N)N)C[C@@H]2NC(=N)N)[C@H](NC(=N)N)C[C@@H]1O [Compound 27] ... 4

Please look at the items below and tell me MIC of ATM in the presence of compound for each one, in order.
1. Cl.Cl.Cl.Cl.Cl.Cl.NC[C@H]1O[C@H](O[C@H]2[C@H](OCCCCCCCCCCCCN3CCN(c4cc5c(cc4F)c(=O)c(C(=O)O)cn5C4CC4)CC3)[C@@H](O[C@H]3O[C@H](CO)[C@@H](O)[C@H](N)[C@H]3O)[C@H](N)C[C@@H]2N)[C@H](N)C[C@@H]1O [Compound 21, Tobramycin-ciprofloxacin]
2. NC[C@H]1O[C@H](O[C@H]2[C@H](OCCCCc3cn(CCCCO[C@@H]4[C@@H](O)[C@H](N)C[C@H](N)[C@H]4O[C@H]4O[C@H](CN)[C@@H](O)C[C@H]4N)nn3)[C@@H](O)[C@H](N)C[C@@H]2N)[C@H](N)C[C@@H]1O [Compound 26, Nebramine Homodimer]

Marked response:
1: 4; 2: 8

---

Can you tell me MIC of IPM in the presence of compound for the items I'm about to list?
system: P. aeruginosa; assay: Checkerboard assay (antibiotic + adjuvant combination MIC); type: cell-based, Pseudomonas aeruginosa; conditions: PA 101243; compound at 8 μM
Answers are plain numbers, in µg/mL.

Guide cases for MIC of IPM in the presence of compound, answers given:
N=C(N)NC[C@H]1O[C@H](O[C@H]2[C@H](OCCCCCCCCCCCCN3CCN(c4cc5c(cc4F)c(=O)c(C(=O)O)cn5C4CC4)CC3)[C@@H](O[C@H]3O[C@H](CO)[C@@H](O)[C@H](NC(=N)N)[C@H]3O)[C@H](NC(=N)N)C[C@@H]2NC(=N)N)[C@H](NC(=N)N)C[C@@H]1O [Compound 27] ... 4
NC[C@H]1O[C@H](O[C@H]2[C@H](OCCCCc3cn(CCCCO[C@@H]4[C@@H](O)[C@H](N)C[C@H](N)[C@H]4O[C@H]4O[C@H](CN)[C@@H](O)C[C@H]4N)nn3)[C@@H](O)[C@H](N)C[C@@H]2N)[C@H](N)C[C@@H]1O [Compound 26, Nebramine Homodimer] ... 8

Please look at the items below and tell me MIC of IPM in the presence of compound for each one, in order.
1. Cl.Cl.Cl.Cl.Cl.NC[C@H]1O[C@H](O[C@H]2[C@H](OCCCCCCCCCCCCN3CCN(c4cc5c(cc4F)c(=O)c(C(=O)O)cn5C4CC4)CC3)[C@@H](O)[C@H](N)C[C@@H]2N)[C@H](N)C[C@@H]1O [Compound 24]
2. Cl.Cl.Cl.Cl.Cl.Cl.NC[C@H]1O[C@H](O[C@H]2[C@H](OCCCCCCCCCCCCN3CCN(c4cc5c(cc4F)c(=O)c(C(=O)O)cn5C4CC4)CC3)[C@@H](O[C@H]3O[C@H](CO)[C@@H](O)[C@H](N)[C@H]3O)[C@H](N)C[C@@H]2N)[C@H](N)C[C@@H]1O [Compound 21, Tobramycin-ciprofloxacin]

Marked response:
4
2
